Test system: Epithelial cells
procedure_text: Labelling (staining) of cells with labelled molecules
Format: cell-based
readout_kind: staining of cells by labelled molecule

Here's what some known entries look like.
CCCCCCCCCCCCC/C=C/[C@@H](O)[C@H](COP(=O)([O-])OCC[N+](C)(C)C)NC(=O)CCCCc1ccc2n1[B-](F)(F)[N+]1=C(C)C=C(C)C1=C2; ✓
CCCCCCCCCCCCCCCCCCCCCCN1/C(=C/C=C/c2oc3ccccc3[n+]2CCC)Oc2ccccc21.[I-]; ✓ not all
CCCCCCCCCCCCCCCCCCN1C(=CC=CC2=[N+](CCCCCCCCCCCCCCCCCC)c3ccccc3C2(C)C)C(C)(C)c2ccccc21.[O-][Cl+3]([O-])([O-])[O-]; ✓
CCCCC/C=C\C/C=C\CCCCCCCCN1C(=CC=CC2=[N+](CCCCCCCC/C=C\C/C=C\CCCCC)c3ccccc3C2(C)C)C(C)(C)c2ccccc21.[O-][Cl+3]([O-])([O-])[O-]; ✓

Turning now to a further record.
## Input Recorded staining of cells by labelled molecule of `CCCCCCCCCCCCCCCCCCCCCC[N+]1=C(/C=C/C=C2/N(CCCCCCCCCCCCCC)c3ccccc3C2(C)C)C(C)(C)c2ccccc21.[I-]` , please.
## Output ✓ not all
